Data origin: ChEMBL document CHEMBL3885881

species on record: Rattus norvegicus; experiment: DrugMatrix - Regimen: Daily Repeat; type: toxicity, organism-based, Sprague-Dawley; parameters: regimen Daily Repeat, gender Male, age 6-8 weeks; settings: in vivo, po, 0 mg/kg, 72 h, tissue Plasma, route oral GAVAGE, dose level Control, time 3 day, […]
measurementType: BLOOD UREA NITROGEN (mg/dL)

>>> df
                                   compound      measurementtype  recordednumber
0     O=C(O)COC(=O)Cc1ccccc1Nc1c(Cl)cccc1Cl  BLOOD UREA NITROGEN           12.17
1  Cc1cccc(C)c1NC(=O)C(C)N (stereo not given) [TOCAINIDE]  BLOOD UREA NITROGEN              12
2   COC(=O)Nc1nc2ccc(C(=O)c3ccccc3)cc2[nH]1  BLOOD UREA NITROGEN           12.17
3  CCC(C)(C)C(=O)O[C@H]1C[C@@H](C)C=C2C=C[C@H](C)[C@H](CC[C@@H]3C[C@@H](O)CC(=O)O3)[C@H]21  BLOOD UREA NITROGEN            14.5
4                         Oc1ncnc2[nH]ncc12  BLOOD UREA NITROGEN           15.83

----------
LYMPHOCYTE: recorded values
species on record: Rattus norvegicus; experiment: DrugMatrix - Regimen: Daily Repeat; assay type: toxicity, organism-based, Sprague-Dawley; parameters: regimen Daily Repeat, gender Male, age 6-8 weeks; conditions: in vivo, po, 0 mg/kg, 72 h, tissue Blood, route oral GAVAGE, dose level Control, time 3 day, […]
measurementType: LYMPHOCYTE (%)

>>> print(df.to_string())
                                   compound  measurementtype  recordednumber
0  CO[C@H]1O[C@@H]2O[C@@]3(C)CC[C@H]4[C@H](C)CC[C@@H]([C@H]1C)[C@@]24OO3       LYMPHOCYTE           86.67
1  CC(C)(c1ccc(O)cc1)c1ccc(O)cc1 [BISPHENOL A]       LYMPHOCYTE           86.67
2  O=C(O)COC(=O)Cc1ccccc1Nc1c(Cl)cccc1Cl [ACECLOFENAC]       LYMPHOCYTE           90.33
3  COC(=O)Nc1nc2ccc(C(=O)c3ccccc3)cc2[nH]1 [MEBENDAZOLE]       LYMPHOCYTE           90.33

----------
organism: Rattus norvegicus; experiment: DrugMatrix - Regimen: Daily Repeat; type: toxicity, organism-based, Sprague-Dawley; design: regimen Daily Repeat, gender Male, age 6-8 weeks; settings: in vivo, po, 0 mg/kg, 72 h, tissue Blood, route oral GAVAGE, dose level Control, time 3 day, […]
Attribute: HEMATOCRIT
measurementType: HEMATOCRIT (%)

>>> print(df.to_string())
                                   compound  measurementtype  recordednumber
0     O=C(O)COC(=O)Cc1ccccc1Nc1c(Cl)cccc1Cl       HEMATOCRIT           34.03
1  Cc1cccc(C)c1NC(=O)C(C)N (stereo not drawn) [TOCAINIDE]       HEMATOCRIT            35.4
2  CS(=O)(=O)c1ccc(C2=C(c3ccccc3)C(=O)OC2)cc1       HEMATOCRIT           32.78
3  CC#C[C@]1(O)CC[C@H]2[C@@H]3CCC4=CC(=O)CCC4=C3[C@@H](c3ccc(N(C)C)cc3)C[C@@]21C       HEMATOCRIT           32.32
4  CCC(C)(C)C(=O)O[C@H]1C[C@@H](C)C=C2C=C[C@H](C)[C@H](CC[C@@H]3C[C@@H](O)CC(=O)O3)[C@H]21       HEMATOCRIT           32.32
5                         Oc1ncnc2[nH]ncc12       HEMATOCRIT           33.68
6  CO[C@H]1O[C@@H]2O[C@@]3(C)CC[C@H]4[C@H](C)CC[C@@H]([C@H]1C)[C@@]24OO3       HEMATOCRIT           36.22
7  O=C(Nc1ccc(Cl)c(Cl)c1)c1cc(Cl)cc(Cl)c1O [3,3',4',5-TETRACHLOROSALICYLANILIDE]       HEMATOCRIT           36.87

----------
organism: Rattus norvegicus; assay: DrugMatrix - Regimen: Daily Repeat; type: toxicity, organism-based, Sprague-Dawley; parameters: regimen Daily Repeat, gender Male, age 6-8 weeks; settings: in vivo, po, 0 mg/kg, 72 h, tissue Blood, route oral GAVAGE, dose level Control, time 3 day, vehicle 100 % SALINE
measurementType: LYMPHOCYTE (%)

>>> df
                                   compound  resultunit  recordednumber
0                             CCO [ALCOHOL]           %           86.17
1  Cc1ccnc2c1NC(=O)c1cccnc1N2C1CC1 [NEVIRAPINE]           %            92.5
2  CC(CN1c2ccccc2Sc2ccccc21)N(C)C (stereo not given) [PROMETHAZINE]           %           92.67
3        CCN(CC)N=O [N-NITROSODIETHYLAMINE]           %           92.33
4        O=[As][O-].[Na+] [SODIUM ARSENITE]           %           86.17

----------
Below is a list of entries, each paired with its recorded HEMATOCRIT value.
species on record: Rattus norvegicus; experiment: DrugMatrix - Regimen: Daily Repeat; assay type: toxicity, organism-based, Sprague-Dawley; set-up: regimen Daily Repeat, gender Male, age 6-8 weeks; conditions: in vivo, po, 0 mg/kg, 72 h, tissue Blood, route oral GAVAGE, dose level Control, time 3 day, vehicle .5 % CMC

compound	HEMATOCRIT, %
COc1cc(NC(C)CCCN)c2ncccc2c1 (centres undefined)	36.94
CN(C)CCOC(c1ccccc1)c1ccccc1.Cn1c(=O)c2[nH]c(Cl)nc2n(C)c1=O [DIMENHYDRINATE]	34.32
NCC(CC(=O)O)c1ccc(Cl)cc1 (centres undefined)	34.75
CC(=O)Nc1ccc2c(c1)Cc1ccccc1-2	34.75
CN(C)CCC=C1c2ccccc2COc2ccccc21 [DOXEPIN]	38.08
CC(C)NCC(O)COc1ccc(CC(N)=O)cc1 (centres undefined)	38.08
O=C(O)CCc1nc(-c2ccccc2)c(-c2ccccc2)o1	36.57
COc1ccc(Cl)cc1C(=O)NCCc1ccc(S(=O)(=O)NC(=O)NC2CCCCC2)cc1 [GLYBURIDE]	37.62
CC(C)Cc1ccc([C@H](C)C(=O)O)cc1	44.65
CCN1C[C@]2(COC)[C@H](O)C[C@H](OC)[C@@]34[C@@H]5C[C@@]6(O)[C@H](OC(=O)c7ccccc7)[C@@H]5[C@@](OC(C)=O)([C@@H]([C@H](OC)[C@H]23)[C@@H]14)[C@@H](O)[C@@H]6OC	45.44
NC(=O)CN1CCCC1=O	35.45
CCN1CCN(c2cc3c(cc2F)c(=O)c(C(=O)O)cn3C2CC2)CC1	37.36
CCN1CCCC1CNC(=O)c1cc(S(N)(=O)=O)ccc1OC (centres undefined) [SULPIRIDE]	36.57
NC(=O)NC(=O)Cc1ccccc1 [PHENACEMIDE]	34.7
Nc1ccc(C(=O)O)c(O)c1	37.62
CC(C)(C#N)c1cc(Cn2cncn2)cc(C(C)(C)C#N)c1	35.58
CCOc1cc(N)c(Cl)cc1C(=O)NCC1CN(Cc2ccc(F)cc2)CCO1 (centres undefined) [MOSAPRIDE]	34.75
Cl.NC[C@H]1CC[C@H](C(=O)Oc2ccc(CCC(=O)O)cc2)CC1 [CETRAXATE HYDROCHLORIDE]	34.05
O=C1c2ccccc2C(=O)C1c1ccccc1	45.44

----------
In this section, each of the molecules is paired with its reported ALANINE AMINOTRANSFERASE.
species: Rattus norvegicus; test: DrugMatrix - Regimen: Daily Repeat; type: toxicity, organism-based, Sprague-Dawley; parameters: regimen Daily Repeat, gender Male, age 6-8 weeks; conditions: in vivo, po, 0 mg/kg, 120 h, tissue Plasma, route oral GAVAGE, dose level Control, time 5 day, vehicle 100 % WATER
measurementType: ALANINE AMINOTRANSFERASE

>>> print(df.to_string())
                                   molecule           measurementtype     result
0            CC(Cl)(Cl)Cl [TRICHLOROETHANE]  ALANINE AMINOTRANSFERASE  50.17 u/L
1  Cc1cc(C(C)(C)C)c(O)c(C)c1CC1=NCCN1 [OXYMETAZOLINE]  ALANINE AMINOTRANSFERASE  50.67 u/L
2                            NN [HYDRAZINE]  ALANINE AMINOTRANSFERASE     51 u/L
3    C[N+](C)(C)CCOC(N)=O.[Cl-] [CARBACHOL]  ALANINE AMINOTRANSFERASE  48.33 u/L
4      CN1C(=O)OC(C)(C)C1=O [TRIMETHADIONE]  ALANINE AMINOTRANSFERASE     43 u/L
5  CCC1(c2ccccc2)C(=O)NC(=O)NC1=O [PHENOBARBITAL]  ALANINE AMINOTRANSFERASE   60.5 u/L
